system: HLA-A*29:02
assay_remarks: IEDB peptide-MHC binding, purified MHC/competitive/radioactivity; filed as Kd, often an IC50 or EC50 that approximates it; bounds were set here for any values at or beyond the usual limits of such assays
stated_conditions: source organism: Mammarenavirus whitewaterense
pKd: −log10 of the molar value.

ordered_residues: ATTNAHCALL
pKd: ≤ 4.15
--
ordered_residues: LLQFIVFLL
pKd: ≤ 4.63

* * *

system: HLA-A*02:03
assay_remarks: IEDB peptide-MHC binding, purified MHC/direct/fluorescence; filed as Kd, often an IC50 or EC50 that approximates it; bounds were set here for any values at or beyond the usual limits of such assays
stated_conditions: source organism: Influenza A virus (A/Taiwan/2/2006(H1N1))

ordered_residues: CFMYSDFHF
Kd [nM]: 307
